All figures here come from ChEMBL document CHEMBL1141032.

For each entry below, report its T1/2 value.
- assayedTarget: Replicase polyprotein 1a (Severe acute respiratory syndrome-related coronavirus) (UniProt P0C6U8)
- protocolSummary: Half life period against SARS-CoV 3CLpro protease
Reply with just the number (in h).

Sure, the documented T1/2 for CCOC(=O)/C=C/[C@H](C[C@@H]1CCNC1=O)NC(=O)[C@H](Cc1ccccc1)CC(O)[C@@H](NC(=O)c1cc(C)on1)C(C)C (some centres undefined) is 4.62

T1/2 reading for CC(C)C[C@H](NC(=O)[C@@H](O)C(S)C(=O)O)C(=O)NCCCCN=C(N)N (some centres undefined) : 5.25

response.value for "CCOC(=O)/C=C/[C@H](C[C@@H]1CCNC1=O)NC(=O)[C@@H](CC(=O)[C@@H](NC(=O)c1cc(C)on1)C(C)C)Cc1ccccc1" (field: T1/2) = 0.817

For reference, reported T1/2 for "CCOC(=O)/C=C/[C@H](C[C@@H]1CCNC1=O)NC(=O)[C@H](CC=C(C)C)CC(=O)[C@@H](NC(=O)c1cc(C)on1)C(C)C" stands at 0.25
